Target: M. tuberculosis MshC (Cys:GlcN-Ins ligase) (Mycobacterium tuberculosis)
Sequence (P9WJM9 whole entry): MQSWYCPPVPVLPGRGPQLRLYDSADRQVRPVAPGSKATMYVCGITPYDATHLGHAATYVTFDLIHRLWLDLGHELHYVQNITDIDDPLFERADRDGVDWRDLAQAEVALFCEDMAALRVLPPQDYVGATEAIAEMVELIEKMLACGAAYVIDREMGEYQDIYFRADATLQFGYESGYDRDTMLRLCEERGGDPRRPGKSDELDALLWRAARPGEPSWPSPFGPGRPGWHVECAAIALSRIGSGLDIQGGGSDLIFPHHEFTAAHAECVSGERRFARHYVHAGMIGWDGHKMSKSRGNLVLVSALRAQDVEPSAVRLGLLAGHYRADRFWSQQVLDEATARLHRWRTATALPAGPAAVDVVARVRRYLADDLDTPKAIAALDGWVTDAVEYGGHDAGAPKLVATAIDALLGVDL
Type: biochemical
measured.quantity: inhibition of ligase activity

O=C(O)CCS [β-mercaptopropionate, β-mercaptopropionic acid] | minor inhibition
CC(=O)N[C@@H](CS)C(=O)O | minor inhibition
